Reference for the values: patent US20070212677A1

# SYSTEM_TESTED: PPAR-gamma:SRC-1 (Homo sapiens, UniProt P37231)
# Sequence (P37231 29-505): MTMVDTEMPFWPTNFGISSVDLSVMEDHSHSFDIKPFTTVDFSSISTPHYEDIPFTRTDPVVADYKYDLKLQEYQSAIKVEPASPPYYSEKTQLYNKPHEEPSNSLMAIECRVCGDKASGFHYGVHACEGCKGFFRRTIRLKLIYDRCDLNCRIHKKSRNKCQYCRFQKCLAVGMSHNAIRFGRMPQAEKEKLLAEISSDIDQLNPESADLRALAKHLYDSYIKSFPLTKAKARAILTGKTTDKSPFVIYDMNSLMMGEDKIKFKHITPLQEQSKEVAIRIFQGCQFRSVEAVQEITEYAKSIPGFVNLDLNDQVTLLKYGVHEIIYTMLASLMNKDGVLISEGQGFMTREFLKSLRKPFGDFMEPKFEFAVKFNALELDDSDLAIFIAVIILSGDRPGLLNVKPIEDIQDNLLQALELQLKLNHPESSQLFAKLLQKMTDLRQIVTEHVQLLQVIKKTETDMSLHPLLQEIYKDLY
# ASSAY_NOTES: PPAR-gamma:SRC-1 PCA
# Type: cell-based
# DETAILS: drug 6.5 hours prior to rosiglitazone 1.5 hours, serum-starved HEK293; FIG. 24B, C
OUTCOME_MEASURE: effect on PPAR-gamma:SRC-1 PCA

COMPOUND	RESULT
COc1cccc(-c2cc(=O)c3ccccc3o2)c1N [PD98059]	no appreciable effects
COc1cc2ncnc(Nc3cccc(Br)c3)c2cc1OC [PD 153035]	no appreciable effects
